# reported conditions: human gut metagenome, 24 h, 2 µM; note: call rule not given here
parameter measured: Bacterial Biotransformation

As a guide, the following entries are already answered.
- molecule: "CCOC(=O)[C@H](CCc1ccccc1)N[C@@H](C)C(=O)N1Cc2ccccc2C[C@H]1C(=O)O"
  Bacterial Biotransformation: "Compound NOT metabolized"
- molecule: "N#Cc1ccc2c(c1)N(CCCN1CCC(O)CC1)c1ccccc1S2"
  Bacterial Biotransformation: "Compound NOT metabolized"
- molecule: "C=C[C@H]1CN2CC[C@H]1C[C@H]2[C@H](O)c1ccnc2ccc(OC)cc12.C=C[C@H]1CN2CC[C@H]1C[C@H]2[C@H](O)c1ccnc2ccc(OC)cc12.O.O.O=S(=O)(O)O [QUININE SULFATE]"
  Bacterial Biotransformation: "Compound NOT metabolized"
- molecule: "COc1ccccc1OCCNCC(O)COc1cccc2[nH]c3ccccc3c12 (stereo not drawn)"
  Bacterial Biotransformation: "Compound metabolized"
- molecule: "CC(NC(C)(C)C)C(=O)c1cccc(Cl)c1 (stereo not drawn)"
  Bacterial Biotransformation: "Compound NOT metabolized"

Please find the next molecule below.
Query: Supply recorded Bacterial Biotransformation for CN(C)CCOC(c1ccc(Cl)cc1)c1ccccn1.O=C(O)/C=C\C(=O)O (stereo not drawn) [CARBINOXAMINE MALEATE] here.
Response: Compound NOT metabolized

====

# reported conditions: human gut metagenome, 24 h, 2 µM
parameter measured: Bacterial Biotransformation

As a guide, the following entries are already answered.
- compound: "CCN(CC)CCOC(=O)C1(C2CCCCC2)CCCCC1"
  Bacterial Biotransformation: "Compound metabolized"
- compound: "COc1ccc(Cc2nccc3cc(OC)c(OC)cc23)cc1OC"
  Bacterial Biotransformation: "Compound metabolized"
- compound: "CN1CCC(=C2c3ccccc3CC(=O)c3sccc32)CC1.O=C(O)/C=C/C(=O)O [KETOTIFEN FUMARATE]"
  Bacterial Biotransformation: "Compound metabolized"
- compound: "CN1CCN2c3ccccc3Cc3ccccc3C2C1 (centres undefined)"
  Bacterial Biotransformation: "Compound metabolized"
- compound: "CCc1cccc2c3c([nH]c12)C(CC)(CC(=O)O)OCC3 (centres undefined)"
  Bacterial Biotransformation: "Compound NOT metabolized"

Query: Supply recorded Bacterial Biotransformation for CN(C)C(=O)Oc1cc(OC(=O)N(C)C)cc(C(O)CNC(C)(C)C)c1 (centres undefined) here.
Response: Compound NOT metabolized

Query: Supply recorded Bacterial Biotransformation for CCCCCNC(=N)N/N=C/c1c[nH]c2ccc(OC)cc12.O=C(O)/C=C\C(=O)O [TEGASEROD MALEATE] here.
Response: Compound NOT metabolized

Query: Supply recorded Bacterial Biotransformation for CC(CCc1ccccc1)NCC(O)c1ccc(O)c(C(N)=O)c1 (centres undefined) here.
Response: Compound NOT metabolized

Query: Supply recorded Bacterial Biotransformation for CCN(CC)CCNC(=O)c1ccc(NC(C)=O)cc1 [ACECAINIDE] here.
Response: Compound NOT metabolized

====

# reported conditions: human gut metagenome, 24 h, 2 µM
parameter measured: Bacterial Biotransformation

- compound: "O=C(NC(Cc1cc(=O)[nH]c2ccccc12)C(=O)O)c1ccc(Cl)cc1 (stereo not drawn) [REBAMIPIDE]"
  parameter measured: "Bacterial Biotransformation"
  endpoint result: "Compound NOT metabolized"
- compound: "CC(=O)O[C@H]1C(=O)[C@@]2(C)[C@H]([C@H](OC(=O)c3ccccc3)[C@]3(O)C[C@H](OC(=O)[C@H](O)[C@@H](NC(=O)c4ccccc4)c4ccccc4)C(C)=C1C3(C)C)[C@]1(OC(C)=O)CO[C@@H]1C[C@@H]2O"
  parameter measured: "Bacterial Biotransformation"
  endpoint result: "Compound NOT metabolized"
